- method-description: Dynamic solubility test (water, SGF, FaSSIF, FeSSIF; 37° C.; 1, 4 and 24 hours)
- Format: physicochemical
- reported-conditions: H2O, 37° C., 1 hr
Please respond with reported pH (of filtrate) for every item in the list.
Give the figure by itself; no unit, no explanation.

If you can, please state the reported pH (of filtrate) value of CCCCCCCC(=O)N[C@H](CN1CCCC1)[C@H](O)c1ccc2c(c1)OCCO2.CCCCCCCC(=O)N[C@H](CN1CCCC1)[C@H](O)c1ccc2c(c1)OCCO2.O=S(=O)(O)c1cccc2c(S(=O)(=O)O)cccc12 . 7.67

Which pH (of filtrate) value belongs to CCCCCCCC(=O)N[C@H](CN1CCCC1)[C@H](O)c1ccc2c(c1)OCCO2 [Free crystalline form A, reference compound] ? 9.24

Reported pH (of filtrate), molecule CCCCCCCC(=O)N[C@H](CN1CCCC1)[C@H](O)c1ccc2c(c1)OCCO2.CCCCCCCC(=O)N[C@H](CN1CCCC1)[C@H](O)c1ccc2c(c1)OCCO2.O=C(O)C(=O)O [Crystalline form A of oxalate] : ____ 7.07

Request the reported pH (of filtrate) associated with CCCCCCCC(=O)N[C@H](CN1CCCC1)[C@H](O)c1ccc2c(c1)OCCO2.CCCCCCCC(=O)N[C@H](CN1CCCC1)[C@H](O)c1ccc2c(c1)OCCO2.O.O.O=S(=O)(O)c1cccc2c(S(=O)(=O)O)cccc12 7.39

----------
- method-description: Dynamic solubility test (water, SGF, FaSSIF, FeSSIF; 37° C.; 1, 4 and 24 hours)
- Type: physicochemical
- reported-conditions: H2O, 37° C., 4 hrs, XRPD of residual solid
assay-metric: FC: Crystalline form transformation

molecule	observed-result
CCCCCCCC(=O)N[C@H](CN1CCCC1)[C@H](O)c1ccc2c(c1)OCCO2 [Free crystalline form A, reference compound]	No
CCCCCCCC(=O)N[C@H](CN1CCCC1)[C@H](O)c1ccc2c(c1)OCCO2.CCCCCCCC(=O)N[C@H](CN1CCCC1)[C@H](O)c1ccc2c(c1)OCCO2.O=C(O)C(=O)O [Crystalline form A of oxalate]	No
CCCCCCCC(=O)N[C@H](CN1CCCC1)[C@H](O)c1ccc2c(c1)OCCO2.CCCCCCCC(=O)N[C@H](CN1CCCC1)[C@H](O)c1ccc2c(c1)OCCO2.O=S(=O)(O)c1cccc2c(S(=O)(=O)O)cccc12	Yes
CCCCCCCC(=O)N[C@H](CN1CCCC1)[C@H](O)c1ccc2c(c1)OCCO2.CCCCCCCC(=O)N[C@H](CN1CCCC1)[C@H](O)c1ccc2c(c1)OCCO2.O.O.O=S(=O)(O)c1cccc2c(S(=O)(=O)O)cccc12	No

----------
Hi there, I'd appreciate the recorded pH (of filtrate) for every entry that follows.
- method-description: Dynamic solubility test (water, SGF, FaSSIF, FeSSIF; 37° C.; 1, 4 and 24 hours)
- Type: physicochemical
- reported-conditions: SGF, 37° C., 1 hr

Would you kindly share the measured pH (of filtrate) for CCCCCCCC(=O)N[C@H](CN1CCCC1)[C@H](O)c1ccc2c(c1)OCCO2.CCCCCCCC(=O)N[C@H](CN1CCCC1)[C@H](O)c1ccc2c(c1)OCCO2.O.O.O=S(=O)(O)c1cccc2c(S(=O)(=O)O)cccc12 ? 1.80

Quick one: pH (of filtrate) for CCCCCCCC(=O)N[C@H](CN1CCCC1)[C@H](O)c1ccc2c(c1)OCCO2.CCCCCCCC(=O)N[C@H](CN1CCCC1)[C@H](O)c1ccc2c(c1)OCCO2.O=S(=O)(O)c1cccc2c(S(=O)(=O)O)cccc12 ? 1.84

# pH (of filtrate) lookup, item CCCCCCCC(=O)N[C@H](CN1CCCC1)[C@H](O)c1ccc2c(c1)OCCO2 [Free crystalline form A, reference compound] 7.27

Reported pH (of filtrate), compound CCCCCCCC(=O)N[C@H](CN1CCCC1)[C@H](O)c1ccc2c(c1)OCCO2.CCCCCCCC(=O)N[C@H](CN1CCCC1)[C@H](O)c1ccc2c(c1)OCCO2.O=C(O)C(=O)O [Crystalline form A of oxalate] : ____ 2.19
